# RUN_DESCRIPTION: inhibitors of TNFa-induced NFkB p65 translocation, primary screen, imaging, HUVEC, MLSMR starter and 10KST1 sets (AID 438);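 also: compound added about 3h40 before a 20 min TNFalpha stimulation; signal is the nuclear over cytoplasmic p65 intensity ratio per well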
# RUN_CONDITIONS: HUVEC TNFa-induced p65 nuclear translocation; at 2 µM, stronger effect = higher value, 0% TNFa-plus-vehicle, 100% no-TNFa wells
// values below are reported inhibition
Use % as the unit, but write only the number.

Example entries begin here.
>>> df
                                   compound  measured_property  numeric_value
0  CC(C)c1cc(NCCCN2CCOCC2)n2c(nc3ccccc32)c1C#N         inhibition          -21.3
1        CC1CCN(c2oc(-c3ccccc3Cl)nc2C#N)CC1         inhibition          -11.3
2  CC(=O)Nc1ccc(S(=O)(=O)Nc2nc3n(n2)C(c2ccccc2)CC(=O)N3)cc1 (stereo unspecified)         inhibition           -7.4
3            CCc1c(C(=O)O)[nH]c2ccc(Br)cc12         inhibition           -1.8
4  Cc1ccc(Cn2ncc3c(N4CCN(c5ccc(C)cc5)CC4)ncnc32)cc1         inhibition           -0.1

## Task What value of inhibition has been recorded for this entry: C=CCn1c(=S)[nH]c2nc3c(cc2c1=O)COC(C)(C)C3
## Result -2.3

## Task What value of inhibition has been recorded for this entry: Cc1cc(OCC(=O)Nc2ccc3oc(-c4ccncc4)nc3c2)ccc1Cl
## Result -6.9

## Task What value of inhibition has been recorded for this entry: CCCCn1cnc2c(c1=O)c1nc3ccccc3nc1n2Cc1ccc2c(c1)OCO2
## Result -2
